- assayed.target: Carbonic anhydrase 9 (Homo sapiens, UniProt Q16790)
- method.description: Inhibition of recombinant human carbonic anhydrase 9 by stopped-flow CO2 hydration assay
measured.parameter: Ki (nM)
Please state the figure in nM; there is no need to write the unit.

Study these solved cases before continuing.
smiles.str	Ki [nM]
Cc1c(C(=O)O)cnc2c(NC(=O)NCCc3ccc(S(N)(=O)=O)cc3)cnn12	212
Cc1c(C(=O)O)cnc2c(NC(=O)Nc3ccc(S(N)(=O)=O)cc3)cnn12	851
CCOC(=O)c1cnc2c(NC(=O)NCCc3ccc(S(N)(=O)=O)cc3)cnn2c1C	975

Input "Cc1c(C(=O)O)cnc2c(NC(=O)NCc3ccc(S(N)(=O)=O)cc3)cnn12" , output reported Ki.
703
